assay-summary: Oral bioavailability in rat
Format: ADME, organism-based
measurement-setup: in vivo
observed-property: bioavailability (%)
Numeric only. Scale: %

Item Cc1c(CO)c(=O)oc2c3c(ccc12)OC(C)(C)[C@H](OC(=O)C12CCC(C)(C(=O)O1)C2(C)C)[C@@H]3OC(=O)C12CCC(C)(C(=O)O1)C2(C)C (stereo partly specified) has what recorded bioavailability?
15

---

System: H9
assay-summary: Cytotoxicity against human H9 cells after 4 days by coulter counter
Assay type: cell-based
measurement-setup: Homo sapiens, H9, 96 h
Attribute: pIC50
# pIC50 = -log10(concentration in molar units)

Recorded pIC50, per entry:
CC(C)c1cc(=O)c2ccc3c(c2o1)[C@@H](OC(=O)C12CCC(C)(C(=O)O1)C2(C)C)[C@@H](OC(=O)C12CCC(C)(C(=O)O1)C2(C)C)C(C)(C)O3 (stereo partly specified); 4.82
CCOCc1cc(=O)c2ccc3c(c2o1)[C@@H](OC(=O)C12CCC(C)(C(=O)O1)C2(C)C)[C@@H](OC(=O)C12CCC(C)(C(=O)O1)C2(C)C)C(C)(C)O3 (stereo partly specified); 4.90
CC1(C)Oc2ccc3c(=O)cc(-c4ccccc4)oc3c2[C@@H](OC(=O)C23CCC(C)(C(=O)O2)C3(C)C)[C@H]1OC(=O)C12CCC(C)(C(=O)O1)C2(C)C (stereo partly specified); 4.91

Item CCc1cc(=O)c2ccc3c(c2o1)[C@@H](OC(=O)C12CCC(C)(C(=O)O1)C2(C)C)[C@@H](OC(=O)C12CCC(C)(C(=O)O1)C2(C)C)C(C)(C)O3 (stereo partly specified) has what recorded pIC50?
4.43

Item Cc1cc(=O)c2ccc3c(c2o1)[C@@H](OC(=O)C12CCC(C)(C(=O)O1)C2(C)C)[C@@H](OC(=O)C12CCC(C)(C(=O)O1)C2(C)C)C(C)(C)O3 (stereo partly specified) has what recorded pIC50?
4.93

---

Test system: Tubulin
assay-summary: Inhibition of tubulin polymerization
observed-property: IC50 (nM)
Numeric only. Scale: nM

Cc1cnc2[nH]c(-c3cccc(F)c3)cc(=O)c2c1; 630
Cc1cnc2nc(-c3cccc4ccccc34)cc(O)c2c1; 550
COc1cccc(-c2cc(=O)c3ccc(C)nc3[nH]2)c1; 750

Item Cc1ccc2c(=O)cc(-c3cccc(F)c3)[nH]c2n1 has what recorded IC50?
530

Item Cc1cnc2[nH]c(-c3cccc(Cl)c3)cc(=O)c2c1 has what recorded IC50?
720

---

Test system: Human immunodeficiency virus 1
assay-summary: Antiviral activity against HIV1 NL4-3
Assay type: functional, organism-based
measurement-setup: Human immunodeficiency virus 1, NL4-3
observed-property: EC50
Remember to quote the unit after the number.

Item CC(C)C[C@@H](NC(=O)[C@]12CCC(C)(C)C=C1[C@H]1CC[C@@H]3[C@@]4(C)CC[C@H](OC(=O)CC(C)(C)C(=O)O)C(C)(C)[C@@H]4CC[C@@]3(C)[C@]1(C)CC2)C(=O)O has what recorded EC50?
8.5 nM

---

assay-summary: Therapeutic index, ratio of IC50 for human H9 cells to EC50 for HIV1
Format: cell-based
measurement-setup: read-out: TI
Attribute: selectivity ratio
I only need the number, thanks.

Recorded selectivity ratio, per entry:
C=C(C)[C@@H]1CC[C@]2(C(=O)O)CC[C@]3(C)[C@H](CC[C@@H]4[C@@]5(C)CC[C@H](OC(=O)COCC(=O)O)C(C)(C)[C@@H]5CC[C@]43C)[C@@H]12; 1170
C=C(C)[C@@H]1CC[C@]2(C(=O)O)CC[C@]3(C)[C@H](CC[C@@H]4[C@@]5(C)CC[C@H](OC(=O)CC(C)(C)C(=O)O)C(C)(C)[C@@H]5CC[C@]43C)[C@@H]12 [BEVIRIMAT]; 20000
C=C(C)[C@@H]1CC[C@]2(C(=O)O)CC[C@]3(C)[C@H](CC[C@@H]4[C@@]5(C)CC[C@H](OC(=O)CCC(=O)O)C(C)(C)[C@@H]5CC[C@]43C)[C@@H]12; 4

Item C=C(C)[C@@H]1CC[C@]2(C(=O)O)CC[C@]3(C)[C@H](CC[C@@H]4[C@@]5(C)CC[C@H](OC(=O)C(C)(C)CC(=O)O)C(C)(C)[C@@H]5CC[C@]43C)[C@@H]12 has what recorded selectivity ratio?
6.7

Item C=C(C)[C@@H]1CC[C@]2(C(=O)O)CC[C@]3(C)[C@H](CC[C@@H]4[C@@]5(C)CC[C@H](OC(=O)CC(C)(C)CC(=O)O)C(C)(C)[C@@H]5CC[C@]43C)[C@@H]12 has what recorded selectivity ratio?
2000

Item C=C(C)[C@@H]1CC[C@]2(C(=O)O)CC[C@]3(C)[C@H](CC[C@@H]4[C@@]5(C)CC[C@H](OC(=O)CCCC(=O)O)C(C)(C)[C@@H]5CC[C@]43C)[C@@H]12 has what recorded selectivity ratio?
292
